# assay_method_text: Pharmacokinetics in mice, IP
# Format: in vivo
# run_conditions: mouse, blood, 0.05 mg/kg, AUC0 - >t, IP 0.05 mg/kg
quantity: AUC (ng·h/mL)
Answers are plain numbers, in ng·h/mL.

q: Given Cc1ccc2c(c1)c1c(n2CCc2ccccc2)CCN(C)C1 [AVN-101] , state its recorded AUC.
a: 0.487

----------
# assay_method_text: Pharmacokinetics in Rhesus monkeys
# Format: in vivo
# run_conditions: rhesus monkey, in vivo, iv, 2 mg/kg, AUC0 ⟶t, Mean, IV 2 mg/kg
quantity: AUC (ng·h/mL)
Numbers only, in ng·h/mL.

q: Given Cc1ccc2c(c1)c1c(n2CCc2ccccc2)CCN(C)C1 [AVN-101] , state its recorded AUC.
a: 426

Where do the numbers come from? From paper PMC4969713.
